I'd appreciate it if you could supply folding stability dG unfold values for the items below.
assay.explanation: folding stability dG unfold from chymotrypsin proteolysis; higher = more stable
Answer format: numeric, kcal/mol implied, no suffix.

In: Given the sequence SAGMVKVEVEYRPLPNGTVEVTVKLTITEPVPDEDGNLYYKTKTLTITVPTTSLSEAPKHVEEFIKKLSAGG [r19_218_TrMRF] , what is its reported folding stability dG unfold?
Out: 4.03

In: Given the sequence SAGGSPPPLRITYKIRMGGQPFEWTIPIPADDLPPGQQIEIDIRIKKMDPENNRMRMEIDDVEVTPSAGGSA [r2_479_TrROS] , what is its reported folding stability dG unfold?
Out: 0.979

In: Given the sequence SAGGMKITITYDKETKTITVKITYPDGTTEELTIEVPPEKKTPEEIAEELKKLIEERFGKKVEIEIVSAGGS [r8_166_TrROS_Hall] , what is its reported folding stability dG unfold?
Out: 2.45

In: Given the sequence SAGMIKPEEIVEKVKAIFEEEGLENVTVKVYYDEETDEIFVEVEVELEPEEEEKAQAILDKIKKELGLESAG [r5_9_TrMRF] , what is its reported folding stability dG unfold?
Out: 2.38

In: Given the sequence SAGGGMVRPSIKITKHPDTYVATVTVTHPHRPVTVTLPFSSEPEAISEAEKIVEELIATPVPSPAGASAGGS [r16_24_JUSTAS] , what is its reported folding stability dG unfold?
Out: 0.831

In: Given the sequence SAGMTVKVKVEVKTKYFDKNGKLVKEEKKTVEVEVEVKIVIELKPEDLEKAKELAEKLGIEITEEELKSAGG [r19_315_TrROS_Hall] , what is its reported folding stability dG unfold?
Out: 1.86

---

assay.explanation: folding stability dG unfold (combined trypsin and chymotrypsin); higher = more stable
quantity: folding stability dG unfold (kcal/mol)
Answer format: numeric, kcal/mol implied, no suffix.

In: Given the sequence SAGGSAKKKEKKVEKKVITIEVEPGVKTPEEMLEAIRKLKEEYPDTKIIIKASDEQKEALKRLLKESAGGSA [r15_89_TrROS_Hall] , what is its reported folding stability dG unfold?
Out: 0.767

In: Given the sequence SAGGKEYYLVKIEIEVTPENGKKETIEIELIVDGNPEEALKKAKEIAEYLEKKGFKVEIKKIEVYPASAGGS [r16_525_TrMRF] , what is its reported folding stability dG unfold?
Out: 4.54

In: Given the sequence SAGNMFMVRITFPMPRYEQKRDPDNGKPKMEPKPHPREITIMVPPDSPQARDLANKLAPPGWKVDVFPMSAG [r5_468_TrROS] , what is its reported folding stability dG unfold?
Out: 1.09

In: Given the sequence SAGGMKLEFEAEITVPLPVPTPEGGLEFVPITEPIRIEAEHPEELEIALKEAELETIERALKELGIESAGGS [r16_339_TrMRF] , what is its reported folding stability dG unfold?
Out: -0.845

In: Given the sequence SAGGSAGGSSVSVGVPSSYASVEVTVLKEEPGKGLVTVKVTTTVPGTGEVLTETVTIPRSELLSAGGSAGGS [r12_964_JUSTAS] , what is its reported folding stability dG unfold?
Out: 0.828

In: Given the sequence SAGGSAGGSAGGMRITIDDWDPDEGPYRVKVTNPDNNKKKTMPYENLEELAKEGPVEIHRSAGGSAGGSAGG [r7_452_TrROS] , what is its reported folding stability dG unfold?
Out: -0.143

In: Given the sequence SAGGSAGGTIIDRIKELFGPGMKINIQEHPSEPYYRIRIKNPGFGQKREIHVPPDSIEDILDQISAGGSAGG [r6_612_TrROS] , what is its reported folding stability dG unfold?
Out: 0.202

In: Given the sequence SAGGSMKEIVELGEVEFEEDSVALKVKFKVKLVFYDPETGEKVEEREEELEVYFGGDTLEFSPVEGSAGGSA [r2_271_TrMRF] , what is its reported folding stability dG unfold?
Out: 2.08

In: Given the sequence SAGGSAGGSGGTIKLPLYPPEGKEYKGTIPKEKLEAAIAKGEPIKVTLKTKGKEVKEYTIPIKSAGGSAGGS [r12_991_JUSTAS] , what is its reported folding stability dG unfold?
Out: -0.983

In: Given the sequence SAGGSAGGSAGGSMVIRNENGYLIEVKTEVVVDEETKKKYVKTEIRIYKEGEEKELPEESAGGSAGGSAGGS [r4_48_TrROS_Hall] , what is its reported folding stability dG unfold?
Out: 1

In: Given the sequence SAMKVEKLEELPDKEILKVEATPEELRKIVEELAKANPGYEVSYKILEEEPIALITLTPIPKGPKENLVSAG [r14_600_JUSTAS] , what is its reported folding stability dG unfold?
Out: 0.796

In: Given the sequence SAGGPDNIRIDLKIEPTGDSVKITFPIYNPNGSPIKVEMEYQRVGGKKFFRMKIEFGGRPIELWIPISAGGS [r16_476_TrROS] , what is its reported folding stability dG unfold?
Out: 4.7

In: Given the sequence SAMYVRITVTFETPDGTRTVTIEIPPSEVEAGKPLSEEELKALAEEIAAKDPNATITEITIERFPESLESAG [r14_373_JUSTAS] , what is its reported folding stability dG unfold?
Out: 3.99

In: Given the sequence SAGGMLTLEEIKKAKPGEKLEIEVDGKIYLVEIKKNENGELTLTVKKVDKETGEIVEEKTISLEELLSAGGS [r16_763_TrROS_Hall] , what is its reported folding stability dG unfold?
Out: 3.53

In: Given the sequence SAGGPVFEVTPEVDPDTDLVTYTVRVPADVDFAAVAKALETEFADGSRAEVKPLPDGTVVVVVRLPASAGGS [r8_255_TrMRF] , what is its reported folding stability dG unfold?
Out: 0.942

In: Given the sequence SAGGSAGGSASVTVVPSPGPTTTVVTFSPDDTVTVTTHTVDPSAATSTPTTTTVSLSDPAAASAGGSAGGSA [r18_503_JUSTAS] , what is its reported folding stability dG unfold?
Out: 1.73

In: Given the sequence SAGGSAGGSQKIEITKVEPERGPNGRPYHRVNIEIVIPDGKPRKFDFYFDDPEDLENMTIELPSAGGSAGGS [r20_130_TrROS] , what is its reported folding stability dG unfold?
Out: -0.88
